Target: HIV Env of isolate HIV-001428-2.42 (clade C) (HIV)
Assay: cell-based or functional assay
recordedMetric: IC50 (µg/ml) with constrains (µg/mL)

[
  {
    "binder": "ePGDM13 (antibody, V domains shown) VH: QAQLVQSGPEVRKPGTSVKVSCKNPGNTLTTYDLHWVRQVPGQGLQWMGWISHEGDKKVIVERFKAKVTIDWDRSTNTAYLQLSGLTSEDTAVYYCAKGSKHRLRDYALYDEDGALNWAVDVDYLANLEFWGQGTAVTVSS VL: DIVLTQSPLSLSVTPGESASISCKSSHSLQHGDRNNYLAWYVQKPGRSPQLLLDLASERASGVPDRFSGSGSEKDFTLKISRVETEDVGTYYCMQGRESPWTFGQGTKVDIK",
    "recordedMetric": "IC50 (µg/ml) with constrains",
    "unitOfMeasure": "µg/mL",
    "measValue": 0.003
  },
  {
    "binder": "ePGDM9 (antibody, V domains shown) VH: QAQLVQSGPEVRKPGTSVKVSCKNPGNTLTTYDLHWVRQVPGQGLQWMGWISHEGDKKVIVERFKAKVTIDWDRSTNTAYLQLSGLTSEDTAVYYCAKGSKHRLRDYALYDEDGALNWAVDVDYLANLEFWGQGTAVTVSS VL: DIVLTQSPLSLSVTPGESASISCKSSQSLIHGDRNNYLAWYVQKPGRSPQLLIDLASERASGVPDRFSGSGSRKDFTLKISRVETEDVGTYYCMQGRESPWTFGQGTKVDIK",
    "recordedMetric": "IC50 (µg/ml) with constrains",
    "unitOfMeasure": "µg/mL",
    "measValue": 0.002
  },
  {
    "binder": "ePGDM5 (antibody, V domains shown) VH: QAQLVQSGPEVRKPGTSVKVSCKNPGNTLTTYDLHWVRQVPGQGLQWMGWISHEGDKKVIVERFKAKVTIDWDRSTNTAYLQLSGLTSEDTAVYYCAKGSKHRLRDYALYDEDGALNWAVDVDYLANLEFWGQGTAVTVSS VL: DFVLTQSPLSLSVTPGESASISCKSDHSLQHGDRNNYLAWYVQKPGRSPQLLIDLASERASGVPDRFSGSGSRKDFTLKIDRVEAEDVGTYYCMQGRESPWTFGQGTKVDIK",
    "recordedMetric": "IC50 (µg/ml) with constrains",
    "unitOfMeasure": "µg/mL",
    "measValue": 0.003
  }
]
